Assay Comment: Int 1-4 dog plasma PK (study j)
Format: in vivo
Measurement Parameters: male beagle dog, after iv Int 1-4 10 mg/kg (study j)

| Structure String | clearance (mL/min/kg) |
| --- | --- |
| COc1cc(OC)c2oc(COC(=O)Nc3ccn([C@@H]4O[C@H](CO)[C@@H](O)C4(F)F)c(=O)n3)cc2c1 | 35.2 |

* * *

Assay Comment: Liver microsomal stability, rat
Format: in vitro ADME
Measurement Parameters: rat liver microsomes

| Structure String | half-life |
| --- | --- |
| COc1cc(OC)c2oc(COC(=O)Nc3ccn([C@@H]4O[C@H](CO)[C@@H](O)C4(F)F)c(=O)n3)cc2c1 | 4.66 min |

* * *

Assay Comment: Int 1-4 plasma PK in the male cynomolgus monkey (study f)
Type: in vivo
Measurement Parameters: after iv Int 1-4 10 mg/kg (study f)
Property Name: AUC(0-inf) (ng·h/mL)

| Structure String | Property Name | Value |
| --- | --- | --- |
| COc1cc(OC)c2oc(COC(=O)Nc3ccn([C@@H]4O[C@H](CO)[C@@H](O)C4(F)F)c(=O)n3)cc2c1 | AUC(0-inf) | 17400 |

* * *

Assay Comment: Comparative PK of Int 1-4 versus gemcitabine in rat plasma (study i)
Assay type: in vivo, Sprague-Dawley rats
Measurement Parameters: plasma, Sprague-Dawley rat, after iv gemcitabine 4.47 mg/kg; read-out: MRT0-last

| Compound | Scale Unit | MRT last |
| --- | --- | --- |
| Nc1ccn([C@@H]2O[C@H](CO)[C@@H](O)C2(F)F)c(=O)n1 [Gemcitabine, gemcitabine] | h | 2.82 |

* * *

Assay Comment: Int 1-4 and gemcitabine comparative PK in male cynomolgus monkey (study g)
Assay type: in vivo
Measurement Parameters: plasma, male cynomolgus monkey, after iv Int 1-4 10 mg/kg (study g)
Protocol: Objectives: to compare the plasma pharmacokinetics and stability of Int 1-4 versus gemcitabine in plasma following single intravenous infusion administration of Int 1-4 at 5 mg/kg and 10 mg/kg with equimolar gemcitabine at 2.65 mg/kg and 5.29 mg/kg in male cynomolgous monkeys PK measurements: compare PK parameters C0, CL, Vdss, Cmax, tmax, t1/2, AUC(0-t), AUC(0-inf), MRT(0-t), MRT(0-inf) for Int 1-4 with gemcitabine
Property Name: C0 (µg/mL)

| Compound | Value |
| --- | --- |
| COc1cc(OC)c2oc(COC(=O)Nc3ccn([C@@H]4O[C@H](CO)[C@@H](O)C4(F)F)c(=O)n3)cc2c1 [Int 1-4] | 146 |

* * *

Assay Comment: Comparative plasma PK of Int 1-4 versus gemcitabine in mouse (study a)
Assay type: in vivo
Measurement Parameters: mouse; plasma, CD-1 mice, after iv Int 1-4 9.4 mg/kg; read-out: Cmax
Property Name: Cmax

| Structure String | Property Name | Value |
| --- | --- | --- |
| Nc1ccn([C@@H]2O[C@H](CO)[C@@H](O)C2(F)F)c(=O)n1 | Cmax | 81.9 ng/mL |

* * *

Assay Comment: Comparative plasma PK of Compound 1 versus Int 1-4 in male CD-1 mice (study b)
Assay type: in vivo
Measurement Parameters: male, CD-1, mouse, iv, 11.6 mg/kg, after iv Compound 1 11.6 mg/kg, read-out: AUC0-inf
Where a name gives a salt, the structure may show the parent alone.
Measured AUC(0-inf) values are reported for all entries that follow.
Property Name: AUC(0-inf) (ng·h/mL)

| Compound | Scale Unit | Value |
| --- | --- | --- |
| COc1cc(OC)c2oc(COC(=O)Nc3ccn([C@@H]4O[C@H](COP(=O)(O)O)[C@@H](O)C4(F)F)c(=O)n3)cc2c1 [Compound 1, ammonium salt] | ng·h/mL | 202 |
| Nc1ccn([C@@H]2O[C@H](CO)[C@@H](O)C2(F)F)c(=O)n1 [Gemcitabine, gemcitabine] | ng·h/mL | 112 |
| COc1cc(OC)c2oc(COC(=O)Nc3ccn([C@@H]4O[C@H](CO)[C@@H](O)C4(F)F)c(=O)n3)cc2c1 [Int 1-4] | ng·h/mL | 2610 |

* * *

Measured half-life values are reported for all entries that follow.
Assay Comment: Rat liver S9 stability
Type: in vitro ADME
Measurement Parameters: rat liver S9; read-out: t1/2 Mean ± SE
Property Name: half-life (min)

| Compound | Property Name | Scale Unit | Value |
| --- | --- | --- | --- |
| COc1cc(OC)c2oc(COC(=O)Nc3ccn([C@@H]4O[C@H](CO)[C@@H](O)C4(F)F)c(=O)n3)cc2c1 | half-life | min | 19.4 |
| COc1cc2ccc(=O)oc2cc1O [Scopoletin, reference compound] | half-life | min | 22.1 |

* * *

Assay Comment: Comparative plasma PK of Compound 1 versus Int 1-4 in male CD-1 mice (study b)
Format: in vivo
Measurement Parameters: male, CD-1, mouse, iv, 11.6 mg/kg, after iv Compound 1 11.6 mg/kg, read-out: Vdss
Where a name gives a salt, the structure may show the parent alone.
Property Name: Vd (L/kg)

| Compound | Property Name | Scale Unit | Value |
| --- | --- | --- | --- |
| COc1cc(OC)c2oc(COC(=O)Nc3ccn([C@@H]4O[C@H](COP(=O)(O)O)[C@@H](O)C4(F)F)c(=O)n3)cc2c1 [Compound 1, ammonium salt] | Vd | L/kg | 1.41 |

* * *

Measured IC50 values are reported for all entries that follow.
Tested on: UT-SCC-16A
Assay Comment: Tumor cell proliferation (alamarBlue) cytotoxicity assay, UT-SCC-16A
Assay type: cell-based, human
Measurement Parameters: Homo sapiens, 72 hours treatment
Structures can show the parent of a compound that is named as a salt.

| Molecule | IC50 (nM) |
| --- | --- |
| COc1cc(OC)c2oc(COC(=O)Nc3ccn([C@@H]4O[C@H](COP(=O)(O)O)[C@@H](O)C4(F)F)c(=O)n3)cc2c1 [Compound 1, ammonium salt] | 73 |
| Nc1ccn([C@@H]2O[C@H](CO)[C@@H](O)C2(F)F)c(=O)n1 | 61 |
| COc1cc(OC)c2oc(COC(=O)Nc3ccn([C@@H]4O[C@H](CO)[C@@H](O)C4(F)F)c(=O)n3)cc2c1 | 138 |

* * *

Assay Comment: Int 1-4 and gemcitabine comparative PK in male cynomolgus monkey (study g)
Format: in vivo
Measurement Parameters: plasma, male cynomolgus monkey, after iv Int 1-4 10 mg/kg (study g); read-out: MRT0-inf

| Molecule | Scale Unit | MRT inf |
| --- | --- | --- |
| Nc1ccn([C@@H]2O[C@H](CO)[C@@H](O)C2(F)F)c(=O)n1 [Gemcitabine, gemcitabine] | min | 15.6 |
| COc1cc(OC)c2oc(COC(=O)Nc3ccn([C@@H]4O[C@H](CO)[C@@H](O)C4(F)F)c(=O)n3)cc2c1 [Int 1-4] | min | 23.4 |

* * *

Measured AUC(0-t) values are reported for all entries that follow.
Assay Comment: Comparative dog plasma PK of Int 1-4 versus gemcitabine (study k)
Type: in vivo
Measurement Parameters: male beagle dog, after iv Int 1-4 5 mg/kg (study k)

| Structure String | Scale Unit | AUC(0-t) |
| --- | --- | --- |
| COc1cc(OC)c2oc(COC(=O)Nc3ccn([C@@H]4O[C@H](CO)[C@@H](O)C4(F)F)c(=O)n3)cc2c1 | ng·h/mL | 2700 |
| Nc1ccn([C@@H]2O[C@H](CO)[C@@H](O)C2(F)F)c(=O)n1 | ng·h/mL | 2330 |

* * *

Assay Comment: Comparative dog plasma PK of Int 1-4 versus gemcitabine (study k)
Format: in vivo
Measurement Parameters: male beagle dog, after iv gemcitabine 5.29 mg/kg, read-out: MRT0-last

| Compound | MRT last (h) |
| --- | --- |
| Nc1ccn([C@@H]2O[C@H](CO)[C@@H](O)C2(F)F)c(=O)n1 [Gemcitabine, gemcitabine] | 2.19 |

* * *

Assay Comment: Comparative PK of Int 1-4 versus gemcitabine in rat plasma (study i)
Type: in vivo, Sprague-Dawley rats
Measurement Parameters: plasma, Sprague-Dawley rat, after iv gemcitabine 4.47 mg/kg

| Structure String | AUC(0-t) / ng·h/mL |
| --- | --- |
| Nc1ccn([C@@H]2O[C@H](CO)[C@@H](O)C2(F)F)c(=O)n1 | 14700 |

* * *

Assay Comment: Int 1-4 dog plasma PK (study j)
Type: in vivo
Measurement Parameters: male beagle dog, after iv Int 1-4 20 mg/kg (study j)

| Structure String | Scale Unit | C0 |
| --- | --- | --- |
| COc1cc(OC)c2oc(COC(=O)Nc3ccn([C@@H]4O[C@H](CO)[C@@H](O)C4(F)F)c(=O)n3)cc2c1 | µg/mL | 90.9 |

* * *

Assay Comment: Liver microsomal stability, dog
Type: in vitro ADME
Measurement Parameters: dog liver microsomes
Property Name: half-life (h)

| Structure String | Scale Unit | Value |
| --- | --- | --- |
| COc1cc(OC)c2oc(COC(=O)Nc3ccn([C@@H]4O[C@H](CO)[C@@H](O)C4(F)F)c(=O)n3)cc2c1 | h | 2.4 |
